In this section we review reported melting point values for a set of compounds.

Annotate the compound O=C(Nc1ccccc1S(=O)(=O)C1CCCC1)N[C@@H](Cc1ccc(NC(=O)c2c(Cl)cncc2Cl)cc1)C(=O)O with its measured melting point.
233 °C

Annotate the compound CC(=O)OC1CSC(Oc2cccnc2-c2ccccc2)C(OC(C)=O)C1OC(C)=O (stereo unspecified) with its measured melting point.
69 to 101 °C

Annotate the compound CN(C)C(=O)C1=NO[C@@H](c2ccccc2)C1 with its measured melting point.
59 to 61 °C

Annotate the compound CCOC(=O)COC(=O)c1cc(NC(=O)OCc2ccccc2)ccc1OCC(=O)OCC with its measured melting point.
77 to 78 °C

Annotate the compound Cn1nc(C(C)(C)c2ccc(Cl)cc2)nc1-c1c(F)cccc1Cl with its measured melting point.
97 to 100 °C

Annotate the compound Clc1ccc(-c2cnccn2)c(Cl)c1 with its measured melting point.
131 to 132 °C

Annotate the compound CCOC(=O)CNC(=O)c1ccc(O)cc1 with its measured melting point.
205 to 209 °C

Annotate the compound O=C(NC(Cc1ccc(C(F)(F)F)cc1)C(O)c1ccc(F)cc1)c1cccc(-c2ccccc2)c1 (stereo unspecified) with its measured melting point.
165 to 166 °C

Annotate the compound COc1ccc2c(c1)C(CC#N)C(=O)CC2 (stereo unspecified) with its measured melting point.
97 to 99 °C

* * *

measure: melting point

* CCCCCCCCCCCCCCOc1ccc(CN)cc1 | 62 to 64 °C

Annotate the molecule COc1ccc(F)cc1C(C)(C)CC(O)(Cn1cc(CO)c(=O)c2ccccc21)C(F)(F)F (stereo not given) with its measured melting point.
183 to 184 °C

Annotate the molecule COC(=O)C1=C(C)Nc2nc[nH]c(=O)c2C1c1cccc([N+](=O)[O-])c1 (stereo not given) with its measured melting point.
289 to 290 °C

Annotate the molecule CCCCOc1ccc2nc(C(=O)NCC(=O)O)c(O)cc2c1 with its measured melting point.
180 to 182 °C

* * *

In this section we review reported melting point values for a set of compounds.

The cases that follow already have their melting point on record.
• CO[C@@H](C(=O)N[C@H]1CC[C@@H](OC(=O)C2CCCCCC2)CNC1=O)[C@H](O)[C@@H](O)[C@H](O)/C=C/C(C)(C)C = 84 to 86 °C
• CCCS(=O)(=O)N1CCC(c2nc3cc(-c4ccc(C(N)=O)c(F)c4)ccc3o2)CC1 = 222 to 225 °C
• O=c1ccn(-c2cccc(C(F)(F)F)c2)nc1-c1ccnn1-c1ccc(Cl)cc1 = 166 to 167 °C
• CCc1nn(C2CCC2)c2cc(C(=O)Nc3c(Cl)cncc3Cl)ccc12 = 166 to 168 °C

Then this compound:
Annotate the compound O=c1[nH]ncc2cc(Cl)ccc12 with its measured melting point.
272 to 273 °C

* * *

In this section we review reported melting point values for a set of compounds.

The cases that follow already have their melting point on record.
- O=c1ncc(Cl)cn1CSCc1ccccc1: 186 °C
- CC(C)C(C)NC1=Nc2ccc(Cl)cc2S(=O)(=O)N1C (stereo not given): 102 to 105 °C
- CC(C)(C)OC(=O)CN(C(=O)CN1C(=O)c2ccccc2C1=O)c1ccccc1Oc1ccccc1: 145 °C
- c1cnc(N2CCN(Cc3ccc4c(c3)SCO4)CC2)nc1: 90 to 91 °C
- C=CCc1c(N2C(=O)C3=C(CCCC3)C2=O)ccc(Cl)c1O: 80 to 82.5 °C
- CC(=O)NC[C@H]1CN(c2ccc(N3CCC(C#N)(CC#N)CC3)c(F)c2)C(=O)O1: 222 to 224 °C

Annotate the compound COc1ccc(CC(=O)Cc2ccc(OC)cc2)cc1 with its measured melting point.
75 to 76 °C

Annotate the compound CCCCC(=O)N(CCCCn1ccnc1)C1=Nc2cccc3cccc1c23 with its measured melting point.
110 to 112 °C

Annotate the compound CC1=CC(c2cccs2)(C(C)C(=O)O)Nc2ccccc21 (stereo not given) with its measured melting point.
228 to 229 °C

Annotate the compound O=C(O)C1=Cc2ccc(Cl)c(Cl)c2OC1C(F)(F)F (stereo not given) with its measured melting point.
220 to 221 °C

* * *

measure: melting point

• CCCCC[C@H]1CC[C@H](CCc2ccc(O)cc2)CC1 = 102 °C
• CCNC(=NS(=O)(=O)c1cccc(Cl)c1)N1CC(C)(C)C=N1 = 62 to 67 °C
• Nc1nc(Cl)cc(NCc2ccccc2F)n1 = 130 to 133 °C

Annotate the compound CCOP(=S)(OCC)OC(=O)/C(=N\OC(C)=O)c1csc(N)n1 with its measured melting point.
128 to 130 °C

Annotate the compound Cc1cccc2c1n(CCS(C)(=O)=O)c(=O)n2C(=O)N[C@H](C(=O)N(C)C)C(C)(C)C with its measured melting point.
191 °C

Annotate the compound O=Cc1cc(I)ccc1O with its measured melting point.
99 to 101 °C

Annotate the compound CCOc1ccc(-c2ccc3c(c2)C=C(C(=O)Nc2ccc(CO)cc2)CCO3)cc1 with its measured melting point.
208 to 210 °C

Annotate the compound CN1CCN(C(=O)OC2C3=C(SCCS3)C(=O)N2c2ccccc2)CC1 (stereo unspecified) with its measured melting point.
166 °C

Annotate the compound Cc1cc(=O)c(O)c(C)o1 with its measured melting point.
161 to 163 °C

Annotate the compound O=[N+]([O-])c1c(Cl)nc2c(c1Cl)CCCC2 with its measured melting point.
63 to 64 °C

* * *

In this section we review reported melting point values for a set of compounds.

The cases that follow already have their melting point on record.
* CCCCCCCCCCCCCCN=C=S | 77 to 79 °C
* N#CCCNC(=O)c1cccc(-c2ccc3c(c2)N(Cc2cccc(Cl)c2Cl)CC3)c1 | 160 to 161 °C
* CC1=C(C(=O)OCCN(C)Cc2ccccc2)C(c2ccccc2C(F)(F)F)c2c(ccnc2OCC(C)C)N1 (centres undefined) | 148 to 150 °C
* O=C(O)Cc1cccc(NC(=O)NC2C(=O)N(CC(=O)N3CCCC3)c3ccccc3N(c3ccccc3F)C2=O)c1 (centres undefined) | 197 to 199 °C
* O=C(/C=C/c1cccc(C(F)(F)F)c1)NC1CC1 | 98 °C
* CC(C)NCC(O)COc1ccc(CCO)cc1 (centres undefined) | 77 to 78 °C
* COc1ccc(CSc2nnc(-c3ccnc(NC(=O)CCc4ccccc4)c3)o2)cc1C#N | 176 to 177 °C
* N#CCOc1ccc2cc(-c3csc(-c4ccccc4)n3)ccc2c1Br | 157 to 160 °C
* Clc1ccc(C2(Cn3cncn3)OCOC2c2ccc(Cl)cc2Cl)cc1 (centres undefined) | 201 to 203 °C
* Cc1cc(F)ccc1-c1nc(OCCO)nc2c1CNC(=O)N2c1c(F)cccc1F | 172 to 175 °C

Then this compound:
Annotate the compound CN1C(c2ccccc2)CC(=O)CC1c1ccccc1 (centres undefined) with its measured melting point.
147 to 149 °C

* * *

In this section we review reported melting point values for a set of compounds.

• CCOC(=O)Nc1cc2nc(O)c(O)nc2cc1Cl = > 300 °C
• CC(=O)Nc1ccccc1C(=O)C1CCCCC1 = 66 °C
• CC(C)(C)OP(=O)(Cc1ccc(Br)cc1)OC(C)(C)C = 45 °C
• COc1ccc2c(c1)c1c3c(c(-c4ccccc4)cc1n2CCC(N)=O)C(=O)NC3=O = 266 to 270 °C
• Cn1cc(C(=O)NCc2ccc(Cl)cc2)c(=O)c2cc(CN3CCOCC3)cc(C#CCn3ccnc3)c21 = 178 to 180 °C
• CCN(CC)CCOc1cccc2c1c1cccc(Cl)c1n2Cc1ccc(F)cc1 = 104 to 106 °C
• CC(C)OCN1CCN(Cc2ccc(Cl)nc2)C1=NC#N = 85 to 87 °C
• CCOCOC(=O)c1c(I)cc(I)c(NC(C)=O)c1I = 174 to 178 °C
• O=C(O)c1cc(NCCc2ccc([N+](=O)[O-])cc2)ccc1O = 234 to 236 °C
• COC(=O)COc1ccc(OCCC2CCN(c3ccncc3)CC2)cc1 = 86 to 88 °C

Then this compound:
Annotate the compound CC(C)(Oc1ccc(Cl)cc1)C(=O)Cn1cncn1 with its measured melting point.
101 to 103 °C

* * *

measure: melting point

The cases that follow already have their melting point on record.
• CC(=O)c1ccc(NC(=O)C=C(c2ccc(Cl)cc2)c2ccc(Cl)cc2)cc1 = 213 to 215 °C
• Nc1ncnc2c1ncn2C[C@@H]1O[C@H](CO)[C@@H](O)[C@@H]1O = 107 to 109 °C
• CC(C(=O)O)c1ccc(C(=O)c2cccs2)c(Cl)c1 (centres undefined) = 82.5 °C
• CNS(=O)(=O)c1cc(C(=O)NNC(=O)c2occ(-c3ccccc3)c2-c2ccccc2)ccc1OC = 239 to 241 °C
• CCOC(=O)C(=O)OCc1ccc(OC)cc1 = 44 to 45 °C

Annotate the compound Cc1ccc(-c2nc(-c3ccc(O)cc3O)nc(-c3ccc(O)cc3O)n2)c(C)c1 with its measured melting point.
204 to 207 °C

Annotate the compound CCCc1cc(CP(=O)(OC)OC)c2c(CP(=O)(OC)OC)cccc2c1OC with its measured melting point.
69 to 70 °C

Annotate the compound Cc1ccc(C(=O)Nc2ccc(C)c(-c3nc(N(C)C)nc4c3CNC(=O)N4c3c(F)cccc3F)c2)cc1F with its measured melting point.
258 to 264 °C

Annotate the compound CC(=O)OC1CSC(Oc2cccnc2-c2ccoc2)C(OC(C)=O)C1OC(C)=O (centres undefined) with its measured melting point.
185 °C
